Values were extracted from PubChem BioAssay AID1508600.

assay: Components of the Cytosolic LPS Sensing Pathway: Gene Identification via Genome-wide siRNA Screen; details: RAW264.7 macrophages, IL-1a HTRF, actives lie on both sides, screened at 100 nM (by protocol), cells primed 5 h with Pam3CSK4 first
Out of some 53,000 sequences screened, about 3,700 (7%) were called active. This is one part of a sample in which actives are shown more often than they occur.
The reader will find reported z-score values listed item by item below.
Lab note: write the figure by itself, no unit.

Worked cases, answers included:
GUGGGAAUUCUGAAAAAUATT against Vmn1r231 = 0.301
CGCGGAGUUUCGAAGUGUCTT against Drd4 = 3.64

Moving on to another sequence below.
Ask: Could you tell me which z-score is on file for GCUAGAUUUCUACUGUGUCTT against Mindy1 ?
Result: 0.527

====

Measured z-score by item
test: Components of the Cytosolic LPS Sensing Pathway: Gene Identification via Genome-wide siRNA Screen; conditions: RAW264.7 macrophages, IL-1a HTRF, actives lie on both sides, screened at 100 nM (by protocol), cells primed 5 h with Pam3CSK4 first
Screen size: about 53,000 sequences; about 3,700 (7%) were called active. The sample as a whole holds a higher share of actives than the screen did.
API doc: respond with a numeric literal and nothing else, no unit.

GGCCAACUAGGGUGUUUGUTT against Tsx = 0.182
CCAUACAAGAGUGACAGUUTT against Olfr810 = -0.736

Now look at this one.
Ask: Which z-score is reported for this sequence? GGUCAUAGCUUAGAAGGUGTT against Rhov
Result: -0.233

====

experiment: Components of the Cytosolic LPS Sensing Pathway: Gene Identification via Genome-wide siRNA Screen; settings: RAW264.7 macrophages, IL-1a HTRF, actives lie on both sides, screened at 100 nM (by protocol), cells primed 5 h with Pam3CSK4 first
Screen size: about 53,000 sequences; about 3,700 (7%) were called active.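 The calls were made as follows: active = gene knockdowns whose robust z-score for IL-1 alpha signal is at least 2 or at most -2, so actives lie on both sides; inactive = the rest.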 The entries come from a sample that favours actives as a whole.
The reply should name one outcome from y (active), n (inactive)

Use these answered entries as a reference point.
GCAAUGUGUAUCAGCCGACTT against Gprc5b = y
GGAACUGACAGCUAUGAACTT against Atp6v1d = n
CCCUCCUAUUAGCGCAUUUTT against Osbpl2 = n
GGUACAUCUUAGAGGCCAATT against Epo = y
GGGACACUACCCUGAUGAUTT against Vmn1r205 = y
GGUGGUUAUUUAUUGGUGATT against Sp6 = n

Ask: Hi, do you know how GGGUAACAACCAUGUCCGUTT against Pspn came out in this test?
Result: n

Ask: Hi team, can someone confirm the assay call for CCACUAUGCUUCUUGGAAUTT against Serpini2 ?
Result: n

====

# z-score listing for each entry below
assay: Components of the Cytosolic LPS Sensing Pathway: Gene Identification via Genome-wide siRNA Screen; conditions: RAW264.7 macrophages, IL-1a HTRF, actives lie on both sides, screened at 100 nM (by protocol), cells primed 5 h with Pam3CSK4 first
The campaign covered roughly 53,000 sequences. About 3,700 (7%) were called active. Shown is part of a subset that was picked to be rich in actives.
Reply with just the number.

Sample answers from the record:
GGAAGUAGAUUUGAAGUUGTT against Btbd35f1 = 0.256
GGAGGAAGAAGACUCAGAATT against Prkag2 = 3.46
GGAAAACUGCGUUUGGAAATT against Neil3 = 0.387
GGUGUCUGCUUCUUCAAAGTT against Slc25a26 = -2.33
GGAAGGAACCGUUCUAUAATT against Serpinc1 = 0.221
GGUAUCCACUGUGCCAACCTT against Ush2a = -0.343

Next sequence, please.
Ask: I have this sequence here, GCUAAGAUUGUCAUGAUGUTT against Bambi , and I need its recorded z-score.
Result: -1.02

====

assay: Components of the Cytosolic LPS Sensing Pathway: Gene Identification via Genome-wide siRNA Screen; settings: RAW264.7 macrophages, IL-1a HTRF, actives lie on both sides, screened at 100 nM (by protocol), cells primed 5 h with Pam3CSK4 first;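 also: robust z of the log signal after scaling to non-targeting control siRNA wells of the plate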
The whole screen tested about 53,000 sequences, of which about 3,700 (7%) were called active. This excerpt belongs to a sample that is enriched for actives.
Tick satisfied if z-score is -0.2 or greater. Tick not satisfied if z-score is less than -0.2.

GGGAGGAAGAAGAAGGUCATT against Atp1b4 = satisfied
CCGGGACAUAGAGGAAAUUTT against Cabp1 = satisfied
GGACAACUAUGAAUUAGUGTT against Pfkp = not satisfied
GGAUGCCUUGAAGAAAUUATT against Olfr1044 = satisfied

Kindly review the next sequence as well.
Ask: Answer whether z-score of GCAGCAGUUGGCUAAAACATT against Bbof1 is greater than or equal to -0.2.
Result: not satisfied

====

# key: entry, value: z-score
experiment: Components of the Cytosolic LPS Sensing Pathway: Gene Identification via Genome-wide siRNA Screen; settings: RAW264.7 macrophages, IL-1a HTRF, actives lie on both sides, screened at 100 nM (by protocol), cells primed 5 h with Pam3CSK4 first;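 also: robust z of the log signal after scaling to non-targeting control siRNA wells of the plate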
Hit rate of the full screen: of about 53,000 sequences, about 3,700 (7%) were called active. Shown is part of a subset that was picked to be rich in actives.
Number, no unit, nothing else.

GGGCUUUCUCCAAUCGUAATT against Gm4876 = 0.603

// switching to the query sequence
Ask: Field request: z-score | item: GGAAGAACUGAUUGAAGAGTT against Sptlc1
Result: -0.789

====

Test: Components of the Cytosolic LPS Sensing Pathway: Gene Identification via Genome-wide siRNA Screen;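 also: robust z of the log signal after scaling to non-targeting control siRNA wells of the plate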
Conditions: RAW264.7 macrophages, IL-1a HTRF, actives lie on both sides, screened at 100 nM (by protocol), cells primed 5 h with Pam3CSK4 first
Procedure: Non-canonical inflammasome activation by cytosolic LPS is a critical component of the host response to Gram-negative bacterial infection, however we lack a comprehensive understanding of the cellular processes that control this pathway. […] Lipofectamine RNAiMAX Transfection Reagent ([…]; Invitrogen) was added in […] serum-free, antibiotic-free media to plate wells using a Thermo Scientific Matrix WellMate and Microplate Stacker. […] The plates were read on an EnVision plate reader (PerkinElmer). […]
The whole screen tested about 53,000 sequences, of which about 3,700 (7%) were called active. Many of the other results were omitted from the sample, so actives are more common in it than they were.
Each entry falls in a class defined on z-score; the bands are lower range (below 0.07), middle range (0.07 to below 1), upper range (1 or more)

Answered examples (5):
GGCUGCCUAACUGAUAACATT against Inpp4b = middle range
GGAAUUAACGUGUUUCUGUTT against Tor1aip2 = upper range
GGCUCGUCAAAUCAAGUAUTT against H2bc6 = lower range
GGAAGCAUGUGAGAGAAAATT against C130026I21Rik = lower range
GGAGCAACUACAAACAUCUTT against Acss2 = upper range

Ask: State the band of CCACCAUCGGUUGUUAGUUTT against Actg1
Result: upper range

Ask: Returns: class label. Input: GGUCACUGUUAGUUAUUAATT against Tcerg1l
Result: middle range

====

assay: Components of the Cytosolic LPS Sensing Pathway: Gene Identification via Genome-wide siRNA Screen; settings: RAW264.7 macrophages, IL-1a HTRF, actives lie on both sides, screened at 100 nM (by protocol), cells primed 5 h with Pam3CSK4 first;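 also: robust z of the log signal after scaling to non-targeting control siRNA wells of the plate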
Out of some 53,000 sequences screened, about 3,700 (7%) were called active. Many of the other results were omitted from the sample, so actives are more common in it than they were.
Below, each entry is listed with its recorded z-score.
Could you respond with only the numeric value?

Record excerpt, results attached:
GGAGUACGAGCAAAUGGUGTT against Nfkbia = 0.5
GCUCGAUUCAGAAAUCUACTT against Sgce = -0.735
GCUGUACGUAGAUUCCAGATT against Mmp21 = 1.48
CCCAUUGGAACUGCUGUAATT against Metrnl = 0.932
GGAGACUGUCUAAUAAAAATT against Medag = 0.0572

Ask: Sample CCUAACGGUCAGAAGUUGATT against Ccng1 — what was its z-score?
Result: 0.39

Ask: Field request: z-score | item: GGCAGAUUCAGACCUUCGATT against Sult1c2
Result: -0.753

Ask: Reported z-score, sequence CGUGAUGAGUGAAAAUGAUTT against Cd34 : ____
Result: -2.12

Ask: Given the entry GCUGUUCCACAUUGAAGUGTT against Pcdh18 , report its measured z-score.
Result: 2.84

Ask: Can you share its z-score? I mean this sequence: GGUGAUGGGCAAGGUGUUCTT against Syvn1
Result: 0.25

Ask: Reported z-score for GGGUCUACCACAUGUACAUTT against Slc16a6 : what is it?
Result: 2.23

Ask: Can you look up the measured z-score of CCGUGUCUUAGGUGAUCACTT against H2-DMb1 for me?
Result: 0.391

Ask: GET /values?readout=z-score&item= GGCAGAACACAGUUCGAUCTT against Tbcb
Result: 0.165
